Reference for the values: PubChem BioAssay

Entries and their composite z-score
# Tested on: Fibrinogen (Alexa647-labelled)
# TEST SUMMARY: fibrinogen binders on compound microarrays, profiling panel, artefact control for SMM control-protein annotation, biochemical, small-molecule microarray, 635/667 nm fluorescence (AID 1131);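 also: z-score merges 667 nm fluorescence with per-spot signal-to-noise over triplicate slides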
# RUN PARAMETERS: fibrinogen-A647 binding fluorescence, higher = more signal
VALUE TYPE: composite z-score

>>> print(df.to_string())
                               smiles_entry  observed
0  CCOC(=O)NN=C1C[C@@H](O)[C@@H](O)[C@@H]2[C@@H]3C(=O)N(C[C@@H]4CCCO4)C(=O)[C@@H]3CC[C@@H]12     0.216
1  CC(CCC(=O)OC[C@H]1O[C@H](C#Cc2ccccc2)C=C[C@@H]1Oc1ccc(C)cc1)=NOC[C@@H](O)COCc1ccco1     -2.18
2  O=C1C2=CC[C@H]3C(=O)N(Cc4ccc5c(c4)OCO5)C(=O)[C@H]3[C@H]2[C@H](O)[C@@H]2O[C@H]12     0.459
3  CN1C(=O)[C@@]2(CCC(=O)OC(C)(C)C)N=C(c3ccc(OCCCO)cc3)O[C@H]2c2ccccc21     0.411
4  CC(C)NC(=O)[C@@]1(c2ccc([N+](=O)[O-])cc2)CC(=O)N(CC23CC4CC(CC(C4)C2)C3)[C@@H]1c1ccc(CO)cc1I    -0.206
5  C#CCCCON=C1C[C@@H](O)[C@@H](O)[C@@H]2[C@@H]3C(=O)N([C@@H](C)c4ccccc4)C(=O)[C@@H]3CC[C@H]12     0.778

* * *

# TEST SYSTEM: Torsin-1A-interacting protein 1 (Homo sapiens)
# TEST SUMMARY: LAP1 binders from COS7 cell lysate, primary screen, small-molecule microarray, 635/667 nm fluorescence (AID 1116)
# RUN PARAMETERS: COS7-hLAP1 lysate binding, 635 nm fluorescence, higher = more signal
VALUE TYPE: composite z-score

>>> print(df.to_string())
                               smiles_entry                               test_system  observed
0  CC(C)C[C@@H]1NC(=O)[C@H]2C[C@@H](C(=O)O)[C@@H](c3ccc(O)cc3)N2C1=O  Torsin-1A-interacting protein 1 (Homo sapiens)     0.588
1  CCOC(=O)NN=C1C[C@@H](O)[C@@H](O)[C@@H]2[C@@H]3C(=O)N(C[C@@H]4CCCO4)C(=O)[C@@H]3CC[C@@H]12  Torsin-1A-interacting protein 1 (Homo sapiens)     0.584
2  COc1ccc(COC(=O)NN=C2C[C@@H](O)[C@@H](O)[C@@H]3[C@@H]4C(=O)N(c5ccc(F)cc5F)C(=O)[C@@H]4CC[C@@H]23)cc1  Torsin-1A-interacting protein 1 (Homo sapiens)     0.599

* * *

Entries and their composite z-score
# Tested on: Neuregulin-1 EGF-like domain
# TEST SUMMARY: binders of neuregulin-1 EGF-like domain, primary screen, biochemical, small-molecule microarray, 635 nm fluorescence (AID 1081);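 also: binding of the protein to compounds printed on small-molecule microarray slides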
# RUN PARAMETERS: small-molecule microarray binding, higher = more signal

MOLECULE	TEST SYSTEM	composite z-score
Cc1cc2c(c(=O)o1)[C@H](O)[C@H]1O[C@H]1C2=O	Neuregulin-1 EGF-like domain	0.12
COC(=O)CC=C[C@H](C)[C@H](CO)NS(=O)(=O)c1ccc(C)cc1	Neuregulin-1 EGF-like domain	0.629
C[N+](C)(C)CCCCCCNC(=O)[C@@H]1C[C@@H]2C(=O)N3CCC[C@H]3C(=O)N2[C@@H]1c1cccc(OCCO)c1	Neuregulin-1 EGF-like domain	1.35
O=C1[C@H]2[C@H]3[C@H](O)[C@H](O)CC(=NOCc4ccccc4)[C@H]3CC[C@H]2C(=O)N1c1cccc(Oc2ccccc2)c1	Neuregulin-1 EGF-like domain	1.16
CN1C(=O)C2C=CC(C(O)C(c3ccccc3)c3ccccc3)N(NC(=O)OC(C)(C)C)C2C1=O (configuration not stated)	Neuregulin-1 EGF-like domain	1.22
CCN(CC)c1ccc(N2CC=CC34O[C@@H]5/C=C\CCC(C)OC(=O)C5[C@H]3C(=O)N(CCCO)[C@@H]4C2=O)cc1 (some centres not stated)	Neuregulin-1 EGF-like domain	1.58
COCCOC(=O)N1C(=O)[C@@]2(c3cc(C#Cc4ccc(OC)cc4)ccc31)[C@H](C(=O)N1CCN(c3ncccn3)CC1)[C@H]1C(=O)O[C@H](c3ccccc3)[C@H](c3ccccc3)N1[C@@H]2c1ccc(OCCO)cc1	Neuregulin-1 EGF-like domain	0.703
